target: Urokinase (Homo sapiens, UniProt P00749); construct: purchased Calbiochem 672112; assay: Serine protease inhibition: urokinase; type: biochemical, mammalian; conditions: Table 8A, positive controls, numeric; read-out: IC50 Urokinase
value-kind: pIC50
Just so you know, pIC50 here is -log10 of the concentration in molar units; reply with that number alone.

Short answer for CC(=O)N[C@@H](CC(C)C)C(=O)N[C@@H](CC(C)C)C(=O)N[C@H](C=O)CCCNC(=N)N [Leupeptin, leupeptin, reference compound] : pIC50 was 4.66

###

test system: PAM1032/KPC-2; experiment: Biapenem potentiation in PAM1032/KPC-2 (MexAB-OprM overexpressed); format: cell-based, Pseudomonas aeruginosa; details: BLI potency to decrease biapenem MIC 64-fold, 32 to 0.5 μg/ml; efflux proficient strain
value-kind: PAM1032/KPC-2 Biapenem MPC64

{"molecule": "O=C(CSc1nncs1)N[C@H]1Cc2cccc(C(=O)O)c2OB1O [Compound 7]", "PAM1032/KPC-2 Biapenem MPC64": "Z (Z Greater than 40)"}
{"molecule": "[N-]=[N+]=NCC(=O)N[C@H]1Cc2cccc(C(=O)O)c2OB1O [Compound 8]", "PAM1032/KPC-2 Biapenem MPC64": "Y (Y = 10 to 40)"}
{"molecule": "O=C(CSC(F)(F)F)N[C@H]1Cc2cccc(C(=O)O)c2OB1O [Compound 1]", "PAM1032/KPC-2 Biapenem MPC64": "Z (Z Greater than 40)"}
{"molecule": "CSC(=O)N[C@H]1Cc2cccc(C(=O)O)c2OB1O [Compound 11]", "PAM1032/KPC-2 Biapenem MPC64": "Z (Z Greater than 40)"}
{"molecule": "O=C(N[C@H]1Cc2cccc(C(=O)O)c2OB1O)c1cncs1 [Compound 15]", "PAM1032/KPC-2 Biapenem MPC64": "Z (Z Greater than 40)"}
{"molecule": "CSCC(=O)N[C@H]1Cc2cccc(C(=O)O)c2OB1O [Compound 13]", "PAM1032/KPC-2 Biapenem MPC64": "Y (Y = 10 to 40)"}

Short answer for CN(C)C(=O)CC(=O)N[C@H]1Cc2cccc(C(=O)O)c2OB1O [Compound 10] : PAM1032/KPC-2 Biapenem MPC64 was Z (Z Greater than 40)

Short answer for NC(=O)C(=O)N[C@H]1Cc2cccc(C(=O)O)c2OB1O [Compound 17] : PAM1032/KPC-2 Biapenem MPC64 was Z (Z Greater than 40)

###

molecular target: Dipeptidyl peptidase 8 (DPP8) (Homo sapiens, UniProt Q6V1X1); construct: purchased BPS Bioscience 80080; assay: Serine protease inhibition: DPP8; format: biochemical, mammalian; conditions: Table 8B; read-out: IC50 DPP8
Sequence (Q6V1X1 whole entry): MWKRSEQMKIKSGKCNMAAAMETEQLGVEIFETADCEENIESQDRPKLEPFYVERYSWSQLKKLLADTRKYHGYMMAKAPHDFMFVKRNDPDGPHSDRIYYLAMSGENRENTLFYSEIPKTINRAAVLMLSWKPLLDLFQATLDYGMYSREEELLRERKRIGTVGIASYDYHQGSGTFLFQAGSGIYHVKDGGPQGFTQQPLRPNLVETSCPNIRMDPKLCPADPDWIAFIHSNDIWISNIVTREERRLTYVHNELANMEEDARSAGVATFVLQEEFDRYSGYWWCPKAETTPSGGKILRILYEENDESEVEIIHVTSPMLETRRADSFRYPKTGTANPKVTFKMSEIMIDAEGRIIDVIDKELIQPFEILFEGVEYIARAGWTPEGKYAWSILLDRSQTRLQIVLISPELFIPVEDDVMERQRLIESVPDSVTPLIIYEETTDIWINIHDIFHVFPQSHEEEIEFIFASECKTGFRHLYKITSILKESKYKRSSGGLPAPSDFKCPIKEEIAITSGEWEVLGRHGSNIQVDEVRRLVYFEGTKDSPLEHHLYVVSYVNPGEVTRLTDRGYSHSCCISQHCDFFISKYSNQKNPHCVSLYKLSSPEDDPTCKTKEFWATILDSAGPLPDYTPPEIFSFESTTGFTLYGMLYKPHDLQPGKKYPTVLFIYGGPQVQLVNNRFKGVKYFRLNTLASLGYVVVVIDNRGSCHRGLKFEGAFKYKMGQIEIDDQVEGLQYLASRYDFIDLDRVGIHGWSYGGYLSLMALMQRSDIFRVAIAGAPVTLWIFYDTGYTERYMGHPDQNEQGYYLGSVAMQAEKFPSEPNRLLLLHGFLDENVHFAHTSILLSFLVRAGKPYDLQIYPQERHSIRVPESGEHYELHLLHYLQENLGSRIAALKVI
pIC50: −log10 of the molar value.
The reader will find reported pIC50 values listed item by item below.

{"compound": "O=C(CSC(F)F)N[C@H]1Cc2cccc(C(=O)O)c2OB1O", "experimental-target": "Dipeptidyl peptidase 8 (DPP8) (Homo sapiens, UniProt Q6V1X1)", "pIC50": "< 3.30"}

Short answer for Nc1nnc(SCC(=O)N[C@H]2Cc3cccc(C(=O)O)c3OB2O)s1 : pIC50 was 3.30 to 4.82

Short answer for O=CN[C@H]1Cc2cccc(C(=O)O)c2OB1O : pIC50 was < 3.30

Short answer for [N-]=[N+]=NCC(=O)N[C@H]1Cc2cccc(C(=O)O)c2OB1O : pIC50 was < 3.30

Short answer for O=C(Cc1cccs1)N[C@H]1Cc2cccc(C(=O)O)c2OB1O [CPD A, reference compound] : pIC50 was 3.30 to 4.82

Short answer for O=C(COCc1ccccc1)N[C@H]1Cc2cccc(C(=O)O)c2OB1O [CPD B, reference compound] : pIC50 was 3.30 to 4.82

Short answer for O=C(CSc1nncs1)N[C@H]1Cc2cccc(C(=O)O)c2OB1O : pIC50 was 3.30 to 4.82

Short answer for CSC(=O)N[C@H]1Cc2cccc(C(=O)O)c2OB1O : pIC50 was < 3.30

###

target: Thrombin (Homo sapiens, UniProt P00734); construct: Thrombin; MPBio; 19491880; purchased MPBio 19491880; assay: Serine protease inhibition: thrombin; type: biochemical, mammalian; settings: Table 8A, positive controls, numeric; read-out: IC50 Thrombin
value-kind: pIC50
Just so you know, pIC50 here is -log10 of the concentration in molar units; reply with that number alone.

Short answer for CC(=O)N[C@@H](CC(C)C)C(=O)N[C@@H](CC(C)C)C(=O)N[C@H](C=O)CCCNC(=N)N [Leupeptin, leupeptin, reference compound] : pIC50 was 4.82

###

The reader will find reported Ki values listed item by item below.
target: SHV-12 (Klebsiella pneumoniae, UniProt P0AD64, E235K/G234S/L31Q); assay: Inhibition of nitrocefin cleavage by purified SHV-12; type: biochemical; conditions: nitrocefin reporter substrate, purified enzyme; read-out: Ki (SHV-12, NCF)
Sequence (P0AD64 22-286 L31Q/G234S/E235K): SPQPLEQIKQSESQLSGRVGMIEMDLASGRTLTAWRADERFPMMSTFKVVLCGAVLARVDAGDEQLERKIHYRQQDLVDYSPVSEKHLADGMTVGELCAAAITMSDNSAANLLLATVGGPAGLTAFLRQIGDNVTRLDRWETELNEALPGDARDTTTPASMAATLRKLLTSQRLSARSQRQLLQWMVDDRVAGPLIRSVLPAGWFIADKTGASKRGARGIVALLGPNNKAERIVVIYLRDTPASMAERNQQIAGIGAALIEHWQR

The cases that follow already have their Ki on record.
{"item-smiles": "O=C(N[C@H]1Cc2cccc(C(=O)O)c2OB1O)c1cncc(F)c1", "result": "< 1 nM"}
{"item-smiles": "O=C(N[C@H]1Cc2cccc(C(=O)O)c2OB1O)c1cncnc1", "result": "< 1 nM"}

--- query ---
Bench note, SHV-12 (Klebsiella pneumoniae, UniProt P0AD64, E235K/G234S/L31Q): CN(C)C(=O)CC(=O)N[C@H]1Cc2cccc(C(=O)O)c2OB1O , Ki reads < 1 nM

###

The reader will find reported Ki values listed item by item below.
biological target: P99 (Enterobacter cloacae); assay: Inhibition of nitrocefin cleavage by purified P99; conditions: nitrocefin reporter substrate, purified enzyme; read-out: Ki (P99, NCF)
Sequence (P05364 21-381): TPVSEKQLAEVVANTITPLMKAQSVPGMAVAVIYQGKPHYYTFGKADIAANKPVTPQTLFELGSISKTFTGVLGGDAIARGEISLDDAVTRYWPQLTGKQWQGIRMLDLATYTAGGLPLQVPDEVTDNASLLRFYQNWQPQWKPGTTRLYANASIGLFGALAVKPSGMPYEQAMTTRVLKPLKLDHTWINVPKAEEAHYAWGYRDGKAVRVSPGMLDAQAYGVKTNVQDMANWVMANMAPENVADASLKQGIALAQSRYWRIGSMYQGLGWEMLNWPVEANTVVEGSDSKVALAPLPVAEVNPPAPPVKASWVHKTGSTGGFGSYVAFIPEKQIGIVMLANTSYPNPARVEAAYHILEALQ

{"item-smiles": "O=C(CSc1nncs1)N[C@H]1Cc2cccc(C(=O)O)c2OB1O", "Ki": "< 1 nM"}
{"item-smiles": "O=C(CSC(F)F)N[C@H]1Cc2cccc(C(=O)O)c2OB1O", "Ki": "< 1 nM"}
{"item-smiles": "CSC(=O)N[C@H]1Cc2cccc(C(=O)O)c2OB1O", "Ki": "< 1 nM"}
{"item-smiles": "O=C(N[C@H]1Cc2cccc(C(=O)O)c2OB1O)c1cccnc1", "Ki": "< 1 nM"}
{"item-smiles": "O=CN[C@H]1Cc2cccc(C(=O)O)c2OB1O", "Ki": "1 to 10 nM"}
{"item-smiles": "NC(=O)C(=O)N[C@H]1Cc2cccc(C(=O)O)c2OB1O", "Ki": "1 to 10 nM"}

--- query ---
Short answer for NC(=O)CC(=O)N[C@H]1Cc2cccc(C(=O)O)c2OB1O : Ki was 1 to 10 nM

###

molecular target: UniProt Q9F663; assay: Inhibition of nitrocefin cleavage by purified KPC-2; settings: nitrocefin reporter substrate, purified enzyme; read-out: Ki (KPC-2, NCF)
Sequence (Q9F663 25-293, looked up, species assumed): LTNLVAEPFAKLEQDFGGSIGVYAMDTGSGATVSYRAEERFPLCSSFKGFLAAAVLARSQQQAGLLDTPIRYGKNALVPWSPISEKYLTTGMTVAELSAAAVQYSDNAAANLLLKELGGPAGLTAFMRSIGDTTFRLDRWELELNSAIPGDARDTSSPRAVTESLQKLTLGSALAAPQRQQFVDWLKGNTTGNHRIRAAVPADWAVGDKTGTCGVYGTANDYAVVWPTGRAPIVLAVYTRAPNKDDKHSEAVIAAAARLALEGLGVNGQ
pKi: −log10 of the molar value.
value-kind: pKi

The cases that follow already have their pKi on record.
{"compound": "O=C(CSc1nncs1)N[C@H]1Cc2cccc(C(=O)O)c2OB1O", "value-kind": "pKi", "result": "< 8.00"}
{"compound": "O=C(N[C@H]1Cc2cccc(C(=O)O)c2OB1O)c1cncnc1", "value-kind": "pKi", "result": "< 8.00"}
{"compound": "O=C(COCc1ccccc1)N[C@H]1Cc2cccc(C(=O)O)c2OB1O [CPD B, reference compound]", "value-kind": "pKi", "result": "< 8.00"}

Short answer for CSC(=O)N[C@H]1Cc2cccc(C(=O)O)c2OB1O : pKi was < 8.00

Short answer for O=C(N[C@H]1Cc2cccc(C(=O)O)c2OB1O)c1cncs1 : pKi was < 8.00

Short answer for CN(C)C(=O)C(=O)N[C@H]1Cc2cccc(C(=O)O)c2OB1O : pKi was < 8.00

Short answer for CN(C)C(=O)CC(=O)N[C@H]1Cc2cccc(C(=O)O)c2OB1O : pKi was < 8.00

Short answer for Nc1nnc(SCC(=O)N[C@H]2Cc3cccc(C(=O)O)c3OB2O)s1 : pKi was < 8.00

###

target: Chymase (Homo sapiens, UniProt P23946); construct: purchased Enzo Lifescience BML-SE281; test: Serine protease inhibition: chymase; format: biochemical, mammalian
Sequence (P23946 22-247): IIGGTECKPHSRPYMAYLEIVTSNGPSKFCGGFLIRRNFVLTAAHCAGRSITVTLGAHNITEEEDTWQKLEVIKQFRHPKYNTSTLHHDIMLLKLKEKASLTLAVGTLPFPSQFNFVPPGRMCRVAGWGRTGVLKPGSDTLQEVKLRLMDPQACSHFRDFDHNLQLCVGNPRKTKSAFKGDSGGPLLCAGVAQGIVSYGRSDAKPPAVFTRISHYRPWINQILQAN
Structures can show the parent of a compound that is named as a salt.
value-kind: IC50 (µM)
Enter your answer as a number in µM; do not include the unit.

Short answer for NCCc1ccc(S(=O)(=O)F)cc1 [AEBSF, hydrochloride, reference compound] : IC50 was 375

###

Target sequence: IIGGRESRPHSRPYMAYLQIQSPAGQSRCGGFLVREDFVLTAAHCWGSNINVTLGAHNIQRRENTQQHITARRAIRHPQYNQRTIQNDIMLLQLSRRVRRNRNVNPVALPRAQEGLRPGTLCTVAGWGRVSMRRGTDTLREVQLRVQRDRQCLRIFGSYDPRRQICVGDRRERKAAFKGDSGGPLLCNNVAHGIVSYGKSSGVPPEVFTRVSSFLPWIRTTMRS
The reader will find reported IC50 values listed item by item below.

{"molecule": "O=CN[C@H]1Cc2cccc(C(=O)O)c2OB1O", "result": "15 to 500 µM"}
{"molecule": "[N-]=[N+]=NCC(=O)N[C@H]1Cc2cccc(C(=O)O)c2OB1O", "result": "< 15 µM"}
{"molecule": "O=C(CSc1nncs1)N[C@H]1Cc2cccc(C(=O)O)c2OB1O", "result": "15 to 500 µM"}

Short answer for CSC(=O)N[C@H]1Cc2cccc(C(=O)O)c2OB1O : IC50 was 15 to 500 µM

Short answer for O=C(Cc1cccs1)N[C@H]1Cc2cccc(C(=O)O)c2OB1O [CPD A, reference compound] : IC50 was < 15 µM

Short answer for O=C(N[C@H]1Cc2cccc(C(=O)O)c2OB1O)c1cncs1 : IC50 was 15 to 500 µM
